Tested on: Human dendritic cells
Assay: CD40 levels at the DC cell surface (flow cytometry)
Format: cell-based
Details: DC from individual C; 100 μg, 48 hours
property-name: The percentage of CD40^hi DC following treatment (%)

| substance | measured-target | reported |
| --- | --- | --- |
| 5′GGGCGG3′ [N7B] (DNA, all phosphorothioate, methylation of C not given here) | Human dendritic cells | 18 |
| 5′GGGTGG3′ [N3B] | Human dendritic cells | 14 |
| 5′GGCCGG3′ [N4A] (DNA, all phosphodiester, methylation of C not given here) | Human dendritic cells | 16 |
| 5′GGGGGG3′ [N5B] | Human dendritic cells | 15 |
| 5′GGTGGG3′ [N2A] | Human dendritic cells | 17 |
| 5′GGCCGG3′ [N4B] (DNA, all phosphorothioate, methylation of C not given here) | Human dendritic cells | 16 |

----------
Test system: Human dendritic cells
Test: MHC-II levels at the DC cell surface (flow cytometry)
Type: cell-based
Conditions: DC from individual B; 100 μg, 48 hours
Method: Human dendritic cells were obtained from Clonetics (San Diego, Calif., USA) and were cultured in the medium recommended by Clonetics. DC were obtained from three different individuals (see Table 1). […] DC from individual B were seeded in 1.0 ml at 1.0×10^5 cells/ml in 6-well flat-bottomed tissue culture plates for 48 hours with 100 μg of 6 base N1A, N1B, N2A, N2B, N3A, N3B, N5A, N5B, N6A, N6B, N7A or N7B polynucleotides. […] Results are expressed as the percentage of MHC II^hi DC following treatment.
property-name: The percentage of MHC-II^hi DC following treatment (%)

| substance | measured-target | unit-spec | reported |
| --- | --- | --- | --- |
| 5′ GTGTGT3′ [N1B] | Human dendritic cells | % | 7 |
| 5′GGGGGG3′ [N5B] | Human dendritic cells | % | 18 |
| 5′GGGTGG3′ [N3B] | Human dendritic cells | % | 25 |
| 5′GGGAGG3′ [N6A] (unmodified DNA) | Human dendritic cells | % | 25 |
| 5′GGGGGG3′ [N5A] (unmodified DNA) | Human dendritic cells | % | 19 |
| 5′GGTGGG3′ [N2B] | Human dendritic cells | % | 30 |
| 5′GGGCGG3′ [N7A] (DNA, all phosphodiester, methylation of C not given here) | Human dendritic cells | % | 21 |
| 5′GGGTGG3′ [N3A] | Human dendritic cells | % | 23 |
| 5′GGGAGG3′ [N6B] (DNA, backbone not given here; further chemistry not fully specified) | Human dendritic cells | % | 27 |

----------
Test system: Human dendritic cells
Assay: Induction of IFN-gamma production by DC (ELISA)
Format: cell-based
Conditions: DC isolated from individual A; 100 μg, 48 hours
property-name: IFN-gamma production by DC (fold increase compared to untreated DC)

| substance | reported |
| --- | --- |
| 5′GGGTGG3′ [N3B] | 2.0 fold |
| 5′GGTGGG3′ [N2B] | 1.2 fold |
| 5′GGGCGG3′ [N7A] (DNA, all phosphodiester, methylation of C not given here) | 1.0 fold |

----------
Collected End-point titers IgG1, mean ± SD values appear next to each entry.
Test system: female BALB/C mice
Test: Vaccination with hepatitis surface antigen (intramuscular), anti-HbsAg end-point dilution ELISA
Type: in vivo
Conditions: HbsAg 1 μg + Alum 10 μg + polynucleotide 100 μg i.m. day 0 and 21, plasma day 31
Experimental: Immunization with recombinant hepatitis B surface antigen (HbsAg; Cortex Biochemical, San Leandro, Calif., USA) combined with aluminum hydroxide (Alum; SuperFos Biosector, Vedback, Denmark) and/or with N3A, N6A or N6B polynucleotides, was conducted on 6-8 week old female BALB/C mice (Charles River, St-Constant, Qc, Canada). […] Antibodies specific to HbsAg were detected and quantified by end-point dilution assay ELISA. […]

| substance | End-point titers IgG1, mean ± SD |
| --- | --- |
| 5′GGGTGG3′ [N3B] | 4460 |
| 5′GGGAGG3′ [N6A] (unmodified DNA) | 6420 |
| 5′GGGAGG3′ [N6B] (DNA, backbone not given here; further chemistry not fully specified) | 3560 |
| 5′GGGTGG3′ [N3A] | 13320 |

----------
System: Human dendritic cells
Assay: Induction of IL-1beta production by DC (ELISA)
Assay type: cell-based
Details: DC isolated from individual C; 100 μg, 48 hours
property-name: IL-1beta production by DC (fold increase compared to untreated DC) (fold)

| substance | unit-spec | reported |
| --- | --- | --- |
| 5′GGGTGG3′ [N3B] | fold | 2.1 |
| 5′GTGTGT3′ [N1A] | fold | 1.0 |
| 5′GGCCGG3′ [N4B] (DNA, all phosphorothioate, methylation of C not given here) | fold | 1.0 |

----------
Test system: Human dendritic cells
Assay: CD40 levels at the DC cell surface (flow cytometry)
Type: cell-based
Details: DC from individual B; 100 μg, 48 hours
Marks after values point to notes of the source that are not given here.
The substances listed here are annotated with their The percentage of CD40^hi DC following treatment.
property-name: The percentage of CD40^hi DC following treatment

| substance | measured-target | reported |
| --- | --- | --- |
| 5′GGGTGG3′ [N3B] | Human dendritic cells | 33** % |
| 5′GGGAGG3′ [N6A] (unmodified DNA) | Human dendritic cells | 35** % |
| 5′GGTGGG3′ [N2B] | Human dendritic cells | 22% |
| 5′GGTGGG3′ [N2A] | Human dendritic cells | 27** % |
| 5′GTGTGT3′ [N1A] | Human dendritic cells | 21% |
| 5′GGGGGG3′ [N5B] | Human dendritic cells | 21% |
| 5′GGGTGG3′ [N3A] | Human dendritic cells | 36** % |
| 5′ GTGTGT3′ [N1B] | Human dendritic cells | 31** % |
| 5′GGGGGG3′ [N5A] (unmodified DNA) | Human dendritic cells | 40** % |
| 5′GGGAGG3′ [N6B] (DNA, backbone not given here; further chemistry not fully specified) | Human dendritic cells | 28** % |

----------
System: Human dendritic cells
Assay: Induction of IL-12 production by DC (ELISA)
Format: cell-based
Settings: DC isolated from individual A; 100 μg, 48 hours
property-name: IL-12 production by DC (fold increase compared to untreated DC) (fold)

| substance | unit-spec | reported |
| --- | --- | --- |
| 5′GGCCGG3′ [N4A] (DNA, all phosphodiester, methylation of C not given here) | fold | 1.2 |
| 5′GGGCGG3′ [N7A] (DNA, all phosphodiester, methylation of C not given here) | fold | 1.0 |
| 5′GGTGGG3′ [N2A] | fold | 7.9 |
| 5′GGTGGG3′ [N2B] | fold | 1.3 |
| 5′GGGTGG3′ [N3B] | fold | 5.2 |
| 5′GGGGGG3′ [N5B] | fold | 7.5 |
| 5′GGGAGG3′ [N6B] (DNA, backbone not given here; further chemistry not fully specified) | fold | 1.3 |
| 5′ GTGTGT3′ [N1B] | fold | 1.5 |
| 5′GGGAGG3′ [N6A] (unmodified DNA) | fold | 1.0 |
| 5′GGCCGG3′ [N4B] (DNA, all phosphorothioate, methylation of C not given here) | fold | 1.3 |
| 5′GGGGGG3′ [N5A] (unmodified DNA) | fold | 0.9 |

----------
System: Human dendritic cells
Experiment: Increase in cell size and granularity of DC (flow cytometry)
Format: cell-based
Details: DC isolated from individual A; 100 μg polynucleotide, 48 hours
Reported Percentage of DC showing a FCS > 500 units and a SSC > 400 units is given for each of the following substances.
property-name: Percentage of DC showing a FCS > 500 units and a SSC > 400 units (%)

| substance | reported |
| --- | --- |
| 5′GGGTGG3′ [N3A] | 8 |
| 5′GGCCGG3′ [N4B] (DNA, all phosphorothioate, methylation of C not given here) | 4 |
| 5′GGGCGG3′ [N7B] (DNA, all phosphorothioate, methylation of C not given here) | 16 |
| 5′GGGCGG3′ [N7A] (DNA, all phosphodiester, methylation of C not given here) | 8 |
| 5′GGCCGG3′ [N4A] (DNA, all phosphodiester, methylation of C not given here) | 4 |
| 5′GGGGGG3′ [N5B] | 53 |
| 5′GGGAGG3′ [N6B] (DNA, backbone not given here; further chemistry not fully specified) | 4 |
| 5′GGGAGG3′ [N6A] (unmodified DNA) | 9 |
| 5′GGGGGG3′ [N5A] (unmodified DNA) | 10 |
| 5′GGGTGG3′ [N3B] | 28 |
| 5′ GTGTGT3′ [N1B] | 5 |
| 5′GGTGGG3′ [N2A] | 6 |
| 5′GTGTGT3′ [N1A] | 6 |
| 5′GGTGGG3′ [N2B] | 42 |

Data provenance is patent US7371734B2.
